test system: large crabgrass (Digitaria sanguinalis, DIGSA); experiment: Post-emerge test, greenhouse herbicide activity screening; type: in vivo; conditions: post-emerge, 250 g ai/ha, 14 days after application, rating scale 0-100
This section presents molecules with their documented phytotoxicity rating DIGSA values.
Note: the reply should be a number with no unit written.

QUERY: What value of phytotoxicity rating DIGSA has been recorded for this entry: CC(C)Oc1c(Cl)cc(F)c(-n2c(=O)cc(C(F)(F)F)n(C)c2=O)c1NC(=O)c1ccc2ccccc2c1 [2-197]
RESULT: 10

QUERY: # repeat for COc1c(Cl)cc(F)c(-n2c(=O)cc(C(F)(F)F)n(C)c2=O)c1NC(=O)c1ccc(C#N)cc1 [2-67]
RESULT: 40

QUERY: Can you handle COc1c(Cl)cc(F)c(-n2c(=O)cc(C(F)(F)F)n(C)c2=O)c1NC(=O)c1cccc2ccccc12 [2-74] next?
RESULT: 0

QUERY: Moving on to the next molecule: Cc1ccc(-n2c(=O)cc(C(F)(F)F)n(C)c2=O)c(NC(=O)c2ccc3ccccc3c2)c1 [2-201]
RESULT: 45

QUERY: Also need COc1c(Cl)cc(F)c(-n2c(=O)cc(C(F)(F)F)n(C)c2=O)c1NC(=O)C=Cc1ccccc1Cl [2-82] , thanks.
RESULT: 30

QUERY: Entry to check: COc1c(Cl)cc(F)c(-n2c(=O)cc(C(F)(F)F)n(C)c2=O)c1NC(N)=O [Compound 3-26]
RESULT: 0

QUERY: Now the same for COc1c(Cl)cc(F)c(-n2c(=O)cc(C(F)(F)F)n(C)c2=O)c1NC(=O)c1ccc(F)cc1F [Compound 2-42]
RESULT: 30

QUERY: Would you kindly repeat that for COc1c(Cl)cc(F)c(-n2c(=O)cc(C(F)(F)F)n(C)c2=O)c1NC(=O)c1cnc2ccccc2n1 [2-105] ?
RESULT: 10

QUERY: Then this molecule: COc1ccc(COC(=O)Nc2c(OC)c(Cl)cc(F)c2-n2c(=O)cc(C(F)(F)F)n(C)c2=O)cc1 [4-40]
RESULT: 90

QUERY: Now try COc1c(Cl)cc(F)c(-n2c(=O)cc(C(F)(F)F)n(C)c2=O)c1NC(=O)OCc1cccc(F)c1 [4-44] .
RESULT: 95

QUERY: What about COc1c(Cl)cc(F)c(-n2c(=O)cc(C(F)(F)F)n(C)c2=O)c1NC(=O)OCc1ccccn1 [4-36] ?
RESULT: 70

QUERY: // query: Cc1c(Cl)cc(F)c(-n2c(=O)cc(C(F)(F)F)n(C)c2=O)c1NC(=O)OCc1ccccc1Cl [4-54]
RESULT: 60

QUERY: Could you do the same for COc1c(Cl)cc(F)c(-n2c(=O)cc(C(F)(F)F)n(C)c2=O)c1NC(=O)c1ccc(OC(F)(F)F)cc1 [2-72] , please?
RESULT: 0

QUERY: How about this molecule: COc1c(Cl)cc(F)c(-n2c(=O)cc(C(F)(F)F)n(C)c2=O)c1NC(=O)c1ccc(Cl)cc1Cl [2-58]
RESULT: 40

QUERY: Repeat for the following molecule: Cn1c(C(F)(F)F)cc(=O)n(-c2c(F)cc(Cl)c(Oc3ncccc3[N+](=O)[O-])c2NC(=O)c2ccc3ccccc3c2)c1=O [2-199]
RESULT: 95
